B1: RHOBTB2 (parent)
chain: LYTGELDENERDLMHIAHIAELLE

variants of: B1; assay: protein stability index of a GFP-peptide fusion (GPS, HEK-293T) (PSI 1-6); higher = more stable; settings: c terminus: a fixed tail appended;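 further: lentivirally expressed fusions sorted by FACS into six bins by GFP to DsRed ratio, PSI derived from sequencing read proportions per bin multiplied by bin number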

# Variant string, protein stability index
data = [
    ("E21A", 1.72),
    ("N9G", 2.82),
    ("A17N", 2.92),
    ("L13V", 3.22),
    ("E21P", 3.3),
    ("E5L", 2.02),
    ("D7Y", 1.89),
    ("M14G", 3.36),
    ("T3H", 2.08),
    ("M14L", 2.58),
    ("D7V", 2.46),
    ("E5G", 2.34),
    ("Y2M", 2.73),
    ("L22M", 2.18),
]

Provenance of the data: the supplement of paper PMC10567573
